- EXPERIMENTAL TARGET: T1, Taq DNA polymerase (Thermus aquaticus, UniProt P19821 1-832)
- T1 construct: also called Taq enzyme; Taq DNA enzyme
- T1 sequence (P19821 whole entry): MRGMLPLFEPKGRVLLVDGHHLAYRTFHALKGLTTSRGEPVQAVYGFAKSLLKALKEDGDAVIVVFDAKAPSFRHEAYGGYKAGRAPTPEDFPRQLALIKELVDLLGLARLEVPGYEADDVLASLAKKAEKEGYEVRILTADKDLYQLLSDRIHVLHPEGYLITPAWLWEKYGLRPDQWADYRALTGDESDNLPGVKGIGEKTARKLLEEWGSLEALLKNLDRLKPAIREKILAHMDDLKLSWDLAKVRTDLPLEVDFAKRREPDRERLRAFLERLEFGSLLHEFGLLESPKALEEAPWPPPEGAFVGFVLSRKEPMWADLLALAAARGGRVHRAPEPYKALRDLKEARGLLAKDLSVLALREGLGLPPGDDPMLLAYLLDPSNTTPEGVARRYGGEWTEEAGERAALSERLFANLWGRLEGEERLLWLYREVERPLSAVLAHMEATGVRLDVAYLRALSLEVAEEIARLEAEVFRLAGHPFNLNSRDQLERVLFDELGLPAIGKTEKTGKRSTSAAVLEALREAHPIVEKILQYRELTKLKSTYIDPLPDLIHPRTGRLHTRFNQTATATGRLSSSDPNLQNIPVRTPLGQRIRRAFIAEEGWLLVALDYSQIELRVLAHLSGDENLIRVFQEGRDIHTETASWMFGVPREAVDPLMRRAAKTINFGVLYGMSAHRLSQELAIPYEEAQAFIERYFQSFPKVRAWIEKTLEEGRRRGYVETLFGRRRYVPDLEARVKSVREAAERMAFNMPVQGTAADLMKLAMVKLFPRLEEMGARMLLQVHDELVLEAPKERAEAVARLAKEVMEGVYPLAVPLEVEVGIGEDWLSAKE
- PROCEDURE SUMMARY: AMC sensor, antibody immobilised
PROPERTY: koff
Answer format reminder: number followed by unit.

Q) Entry under review: WT 1-9 (antibody, V domains shown, WT background; CDRs built) VH: QVQLQQPGAELVKPGASVRLSCQTSVETFTTYYLYWVKQRPGEGLEWIGGVNPTSGGPVFDEKFKSKATLTVDTSSSTAYMQLSSLTSVDSAVYYCTRSILRRGYYPDYWGQGTALTVSS VL: DIQMTQTTSSLSASLGDRVTISCRGSQDINNYLNWYQQKPDGTIKLLIYFTSRLQSGIPSRFSGSGSGTDYSLTIANLEQEDIATYFCQQDDTIPVTWGAGTKVELKR . Reported koff?
A) 0.000433 s⁻¹
